target: CYP2C9 (Homo sapiens, UniProt P11712)
Sequence (P11712 whole entry): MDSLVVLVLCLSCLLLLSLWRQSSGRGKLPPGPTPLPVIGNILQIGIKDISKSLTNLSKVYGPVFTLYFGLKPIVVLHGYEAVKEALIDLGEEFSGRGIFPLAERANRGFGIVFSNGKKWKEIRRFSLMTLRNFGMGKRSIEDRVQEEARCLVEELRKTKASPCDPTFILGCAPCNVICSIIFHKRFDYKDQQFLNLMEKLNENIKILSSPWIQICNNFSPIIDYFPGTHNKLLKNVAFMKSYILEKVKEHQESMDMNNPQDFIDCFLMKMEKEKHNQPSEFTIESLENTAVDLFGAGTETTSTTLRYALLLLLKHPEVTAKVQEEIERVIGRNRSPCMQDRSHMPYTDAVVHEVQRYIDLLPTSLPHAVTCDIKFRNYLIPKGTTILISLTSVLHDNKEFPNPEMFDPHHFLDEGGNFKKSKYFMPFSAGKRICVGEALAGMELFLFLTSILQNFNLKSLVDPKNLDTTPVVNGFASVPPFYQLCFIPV
Attribute measured: IC50 (µM)
Report the value in µM with no unit label.

IN: Requested read-out: IC50. Entry: Cc1cc(O)cc2oc(=O)c3c(O)cc(O)cc3c12 [AOH, Alternariol]
OUT: 7.4

----------
molecular target: OATP1B1 (Homo sapiens)
Sequence (Q9Y6L6 whole entry): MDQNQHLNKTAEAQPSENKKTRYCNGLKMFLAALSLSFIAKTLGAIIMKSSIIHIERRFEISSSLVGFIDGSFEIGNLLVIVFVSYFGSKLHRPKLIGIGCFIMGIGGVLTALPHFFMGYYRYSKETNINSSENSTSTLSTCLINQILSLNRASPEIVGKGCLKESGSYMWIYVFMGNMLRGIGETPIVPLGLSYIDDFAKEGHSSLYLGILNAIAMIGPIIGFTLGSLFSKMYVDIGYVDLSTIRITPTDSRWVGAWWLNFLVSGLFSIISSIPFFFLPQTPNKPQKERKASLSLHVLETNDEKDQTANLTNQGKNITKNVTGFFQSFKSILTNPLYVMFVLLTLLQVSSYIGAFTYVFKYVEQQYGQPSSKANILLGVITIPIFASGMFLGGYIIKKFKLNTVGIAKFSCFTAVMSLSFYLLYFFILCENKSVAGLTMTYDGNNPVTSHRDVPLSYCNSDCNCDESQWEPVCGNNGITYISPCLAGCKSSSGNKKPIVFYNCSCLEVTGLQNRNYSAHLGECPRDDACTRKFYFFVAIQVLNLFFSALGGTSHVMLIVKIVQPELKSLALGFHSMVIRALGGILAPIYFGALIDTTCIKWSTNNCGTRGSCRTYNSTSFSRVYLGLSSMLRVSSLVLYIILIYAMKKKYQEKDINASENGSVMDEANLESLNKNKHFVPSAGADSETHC
Attribute measured: pIC50
# pIC50: negative log10 of molar concentration; output just the value

IN: Any idea what pIC50 came out for Cc1cc(O)cc2oc(=O)c3c(O)cc(O)cc3c12 on OATP1B1 (Homo sapiens)?
OUT: 5.70
